test: Toxicity liver stage against HepG2, at 10uM; format: cell-based; parameters: test concentration 10 uM, cell line HepG2-A16-CD81EGFP; conditions: human, HepG2-A16-CD81EGFP cells; read-out: INHIBITION
Quick list: cytotoxicity at 10 µM per entry.
Value expressed in %; do not type the unit.

Known results for compounds:
1) C=C(C)CN1CCOC(Cn2cncn2)C1 (configuration not stated): -52
2) CCc1nc(CC(=O)N2CCCC2CN2CCCC2)cs1 (configuration not stated): 7.27
3) CN(C)c1ccc(NC(=O)C2CN(Cc3ccccc3)CCO2)cn1 (configuration not stated): 4.46
4) CC(CC(=O)NCCCn1cccn1)c1cccnc1 (configuration not stated): -1.66
5) Cc1ncsc1CCN(C)C(=O)CN1CC2(CCNCC2)OC1=O: -7.33

Quick check: cytotoxicity at 10 µM of Cc1nccn1-c1cncc(C2CCCN2Cc2cccnc2)n1 (configuration not stated) ?
-20.4

Recorded cytotoxicity at 10 µM of CCc1cc(N2CCC(n3cc(C(=O)NCC(C)C)nn3)CC2)ncn1 , please.
41.4

Value lookup for cytotoxicity at 10 µM; key = Cn1c(N)nnc1SCc1c(F)cccc1Br
-43.2

# get_value(readout='cytotoxicity at 10 µM', item= CN(C)CC(=O)N1CCC2(CC(=O)N(c3cccc(C#N)c3)C2)C1 (configuration not stated) )
3.37

What value of cytotoxicity at 10 µM has been reported for the following compound? COc1cc2c(cc1OC)S(=O)(=O)N(Cc1cccc(C)c1)C2=O
5.98

So what's the measured cytotoxicity at 10 µM for this one? CC(=O)N1CCC(c2nccnc2-c2ccc(F)cc2)CC1
-2.22

Endpoint output: cytotoxicity at 10 µM of CCCN(CC(=O)OC)S(=O)(=O)c1cnc2c(c1)c(C)nn2C . Value?
-2.61
